protocol: Inhibition of FITC-labelled LANA peptide (1 to 23 residues) binding to human HeLa mononucleosomes by fluorescence polarization assay
measured.parameter: IC50
Kindly format the answer as number then unit.

Prompt: I have this substance here, Ac-GMRLRSGRSTG-NH2 , and I need its recorded IC50.
Response: 614 nM
